# ASSAY_METHOD_TEXT: protein stability index of a GFP-peptide fusion (GPS, HEK-293T) (PSI 1-6); higher = more stable;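 also: 24-mer peptide tiles fused after GFP, lentivirally expressed, FACS-sorted into six equal bins by GFP/DsRed ratio, decoded by Illumina sequencing, PSI is the read-weighted mean bin number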
# PARTICULARS: treatment: MLN4924 1 uM, 8 h; c terminus: a fixed tail appended
Assign protein stability index to each entry below.
I only need the number, thanks.

Which protein stability index reading was recorded for the sequence RYEPLPPSLPAAGEQDCCGERVVI [KCNA3] ?
4.08

Which protein stability index reading was recorded for the sequence MVEDDSRKEMTAACTPRRRIINLT [MLH1] ?
3.93

Which protein stability index reading was recorded for the sequence SSSRDTDWVVVKEPVIKVAAIDNG [PI4K2A] ?
4

###

# ASSAY_METHOD_TEXT: protein stability index of a GFP-peptide fusion (GPS, HEK-293T) (PSI 1-6); higher = more stable
# PARTICULARS: treatment: MLN4924 1 uM, 8 h; c terminus: a fixed tail appended
MEASURED_ENDPOINT: protein stability index
I only need the number, thanks.

Which protein stability index reading was recorded for the sequence RVKFRRQEANARERNRMHGLNDAL [NEUROD6] ?
3.43

Which protein stability index reading was recorded for the sequence LEEGDELQLAIPRENAQISLDGDV [TNFSF13B] ?
5.29

Which protein stability index reading was recorded for the sequence QEEEQAETPMAPVPLGPLGETYCE [TRIM15] ?
5.57

Which protein stability index reading was recorded for the sequence ALQEKLWNVAAPLYLKQSDLASAA [INTS4] ?
2.27

###

# ASSAY_METHOD_TEXT: protein stability index of a GFP-peptide fusion (GPS, HEK-293T) (PSI 1-6); higher = more stable
# PARTICULARS: treatment: DMSO; c terminus: a fixed tail appended
Assign protein stability index to each entry below.
I only need the number, thanks.

Which protein stability index reading was recorded for the sequence WEVQVSPTCPVCKDRASPADLRTN [TRIM35] ?
3.2

Which protein stability index reading was recorded for the sequence LSRKLMQLQHEKAELEQHLEQEQE [CCDC6] ?
5.27

Which protein stability index reading was recorded for the sequence NLLLAKGANINAFDKKDRRALHWA [ANKRD44] ?
2.32

Which protein stability index reading was recorded for the sequence YIKVDWQRVEKDMKKAKEQLKIRK [FUNDC2] ?
2.46

Which protein stability index reading was recorded for the sequence FAQYDSFHVDSAAEYYRLHLEGYH [TNXB] ?
2.43

Which protein stability index reading was recorded for the sequence NGRGELVESLKRFCASTRLPPTPL [AUP1] ?
3.18

Which protein stability index reading was recorded for the sequence SALGPPPAASNSSDLFDLMGSSQA [CLINT1] ?
4.7

Which protein stability index reading was recorded for the sequence GGIETGSITEMFGEFRTGKTQICH [RAD51] ?
3.63

Which protein stability index reading was recorded for the sequence MHSFPPLLLLLFWGVVSHSFPATL [MMP1] ?
3.14

Which protein stability index reading was recorded for the sequence LALIDYLTQKRSQLVKKLNDSDHQ [VPS39] ?
2.51

###

# ASSAY_METHOD_TEXT: protein stability index of a GFP-peptide fusion (GPS, HEK-293T) (PSI 1-6); higher = more stable
# PARTICULARS: treatment: MLN4924 1 uM, 8 h; c terminus: a fixed tail appended
MEASURED_ENDPOINT: protein stability index

Which protein stability index reading was recorded for the sequence FDLCDRTFSLKTVLMIAIQLISRM [CSNK1G3] ?
2.54

Which protein stability index reading was recorded for the sequence GSLKSVEVREPALRPAKRELRGAE [SPSB4] ?
5.03

Which protein stability index reading was recorded for the sequence AIGVSISLSSIATCVYIAEIAPQH [SLC2A12] ?
3.34
